Hello, the source for this data is PubChem BioAssay AID2073, in case you need it.

# target-under-test: Voltage-dependent N-type calcium channel subunit alpha-1B (Homo sapiens)
# test-summary: disruptors of CaV2.2 binding to Mint1 – biochemical, HTRF (AID 2073)
# condition-label: HTRF protein-protein interaction, Mint1-CaV2.2; at 20 µM; hits give high values
Among all 290,000 compounds or so, about 570 (0.2%) were called active. Not shown: some 1% with an inconclusive outcome. Many of the other results were omitted from the sample, so actives are more common in it than they were.

{"compound": "O=C(NNc1nc(-c2ccccc2)cs1)c1ccccc1", "target-under-test": "Voltage-dependent N-type calcium channel subunit alpha-1B (Homo sapiens)", "inhibition (%)": -28.9}
{"compound": "CCn1cc(C(=O)O)c(=O)c2cc(F)c(N/N=C/c3ccccc3[N+](=O)[O-])cc21", "target-under-test": "Voltage-dependent N-type calcium channel subunit alpha-1B (Homo sapiens)", "inhibition (%)": 58.8}
{"compound": "COc1cc(/C=C/c2ccc3cccc(O)c3n2)cc(OC)c1OC", "target-under-test": "Voltage-dependent N-type calcium channel subunit alpha-1B (Homo sapiens)", "inhibition (%)": 24.9}
{"compound": "Cc1ccc(S(=O)(=O)c2cnc3cc(C)nn3c2N)cc1", "target-under-test": "Voltage-dependent N-type calcium channel subunit alpha-1B (Homo sapiens)", "inhibition (%)": 9.4}
{"compound": "COc1ccccc1NC(=O)C1=C(C)NC(=O)NC1c1ccccc1F (stereo unspecified)", "target-under-test": "Voltage-dependent N-type calcium channel subunit alpha-1B (Homo sapiens)", "inhibition (%)": 6.4}
{"compound": "CCCCc1cc(=O)oc2cc(OCC(=O)N3CCC(C(N)=O)CC3)ccc12", "target-under-test": "Voltage-dependent N-type calcium channel subunit alpha-1B (Homo sapiens)", "inhibition (%)": 8.7}
{"compound": "CCn1cc(C(=O)O)c(=O)c2cc(F)c(N3CCN(C(=S)NC(=O)c4ccccc4)CC3)cc21", "target-under-test": "Voltage-dependent N-type calcium channel subunit alpha-1B (Homo sapiens)", "inhibition (%)": -5.6}
{"compound": "COc1cc(CNCCO)cc(Br)c1OCc1cccs1", "target-under-test": "Voltage-dependent N-type calcium channel subunit alpha-1B (Homo sapiens)", "inhibition (%)": -3.4}
{"compound": "CN(C)c1ccc(O)c2c1CC1CC3[C@@H](N(C)C)C(=O)C(C(N)=O)=C(O)[C@]3(O)C(=O)C1=C2O (stereo partly specified)", "target-under-test": "Voltage-dependent N-type calcium channel subunit alpha-1B (Homo sapiens)", "inhibition (%)": 22.3}
{"compound": "COc1ccccc1NC(=O)C1=C(C)NC(=O)NC1c1ccccc1[N+](=O)[O-] (stereo unspecified)", "target-under-test": "Voltage-dependent N-type calcium channel subunit alpha-1B (Homo sapiens)", "inhibition (%)": 55.2}
{"compound": "CCn1cc(C(=O)O)c(=O)c2cc(F)c(N/N=C/c3ccccc3)cc21", "target-under-test": "Voltage-dependent N-type calcium channel subunit alpha-1B (Homo sapiens)", "inhibition (%)": 6.4}

---

# target-under-test: Voltage-dependent N-type calcium channel subunit alpha-1B (Homo sapiens)
# test-summary: disruptors of CaV2.2 binding to Mint1 – biochemical, HTRF (AID 2073)
# condition-label: HTRF protein-protein interaction, Mint1-CaV2.2; at 20 µM
The whole screen tested about 290,000 compounds, of which about 570 (0.2%) were called active. Inconclusive results (about 1%) are left out. Rule as the data show it: active = inhibition mostly above about 51% (no sharp cut-off); inconclusive = no clear call, values can overlap the other calls; inactive = mostly below about 53%. The list comes from a sample in which actives are over-represented; it also holds close analogues and randomly drawn compounds.
Labels: active, inactive

{"compound": "NC(=O)CCC(NS(=O)(=O)c1ccc(Cl)cc1)C(=O)NCc1ccccc1 (centres undefined)", "category": "inactive"}
{"compound": "Cc1ccc(-n2c(=O)c3cc4c(=O)n(-c5ccc(C)c(C)c5)c(=O)c4c(C(=O)c4ccc(C(=O)O)cc4)c3c2=O)cc1C", "category": "active"}
{"compound": "COc1ccc2nc(-c3ccccc3)[nH]c2c1", "category": "inactive"}
{"compound": "CCOC(=O)c1[nH]c2ccccc2c1CCCN1C(=O)c2ccccc2C1=O", "category": "inactive"}
{"compound": "C/C(=N\\NC(N)=S)C1(C)CCCCC1", "category": "inactive"}
{"compound": "COc1ccc(C2Nc3cccc4cccc(c34)N2)cc1Br", "category": "inactive"}
{"compound": "Cc1cc2nc3c(=O)n(Cc4ccccc4)c(=O)[nH]c3nc2cc1N", "category": "active"}
{"compound": "COc1ccc(CNC(=O)COc2cc(=O)n(C)c3ccccc23)cc1", "category": "inactive"}
{"compound": "Cc1ccccc1CN(c1ccc(C(=O)NCc2ccccn2)cc1)S(C)(=O)=O", "category": "inactive"}
{"compound": "Cc1ccc(N2C(=O)c3ccc(C(=O)O)cc3C2=O)cc1C", "category": "inactive"}
{"compound": "O=C(O)c1ccc(-n2c(=O)c3ccccc3c3ccccc3c2=O)cc1", "category": "inactive"}
{"compound": "O=C(CN1CCCCCC1=O)N1CCN(S(=O)(=O)c2cccs2)CC1", "category": "inactive"}
{"compound": "N=C1C(c2nc3ccccc3s2)=C(O)CN1NC(=O)c1ccccc1[N+](=O)[O-]", "category": "inactive"}
{"compound": "COc1ccc(-c2cc(-c3ccccc3)nc(=O)[nH]2)cc1", "category": "inactive"}
{"compound": "Cc1cc2oc(=O)cc(CN3CCCCC3C)c2cc1C (centres undefined)", "category": "inactive"}
{"compound": "CC(=O)Nc1cc2c3c(c1)CCN3C(=O)CC2", "category": "inactive"}
{"compound": "COc1ccc(CCNC(=O)C(CC(C)C)NC(N)=O)cc1 (centres undefined)", "category": "inactive"}
{"compound": "Cc1ccc(N=CC=C2OC(C)(C)C(C)(C)O2)cc1", "category": "inactive"}
{"compound": "Cc1cc(=O)cc(C)n1-c1ccc(Cl)cc1", "category": "inactive"}
{"compound": "CC(=O)c1cccc(NC(=O)NNC(=O)c2ccc(-c3ccccc3)cc2)c1", "category": "inactive"}
{"compound": "O=C1OC(c2ccc(F)cc2)=C/C1=C\\c1ccc([N+](=O)[O-])o1", "category": "active"}
{"compound": "O=C(O)CSC(C(=O)Nc1ccc(Br)cc1)c1ccc(Cl)cc1 (centres undefined)", "category": "inactive"}
{"compound": "O=[N+]([O-])c1ccc(/C=N\\NS(=O)(=O)c2ccc(F)cc2)o1", "category": "inactive"}
{"compound": "O=C(CN1C(=O)C2C3C=CC(C4CC34)C2C1=O)Oc1ccccc1 (centres undefined)", "category": "inactive"}
{"compound": "COc1ccc(N2C(=O)c3cc4ccccc4cc3C2=O)cc1", "category": "inactive"}
{"compound": "CCCSc1nc(N2CCOCC2)c2c(c1C#N)CC(C)(C)SC2", "category": "inactive"}
{"compound": "CS(=O)(=O)N(CC(=O)N1CCCC1)Cc1ccc(Cl)c(Cl)c1", "category": "inactive"}
{"compound": "Cc1cc2nc3c(=O)n(CCc4ccccc4)c(=O)[nH]c3nc2cc1N", "category": "inactive"}
{"compound": "CCn1ncc(C2=NOC(C(=O)N3CCC(C(N)=O)CC3)C2)c1C (centres undefined)", "category": "inactive"}
{"compound": "Cc1cccc(C)c1NCc1n[nH]c(=S)n1-c1ccccc1", "category": "inactive"}
{"compound": "COC(=O)c1sccc1NC(=O)c1ccc(C)o1", "category": "inactive"}
{"compound": "O=C1NN(c2ccccc2)C(=O)/C1=C\\c1ccc(-c2cc([N+](=O)[O-])ccc2O)o1", "category": "inactive"}
{"compound": "CC1=NN(c2ccc(C)cc2)C(=O)/C1=C/c1ccc(-c2cc([N+](=O)[O-])ccc2O)o1", "category": "inactive"}
{"compound": "COc1cc(C2Nc3cccc4cccc(c34)N2)cc(OC)c1OC(C)=O", "category": "active"}
{"compound": "O=C1NN(c2cccc(Br)c2)C(=O)/C1=C/c1ccc(-c2cc([N+](=O)[O-])ccc2O)o1", "category": "active"}
{"compound": "COC(=O)C1=C(C)N(CCCC(=O)O)C(=O)NC1c1ccc(-c2ccccc2)cc1 (centres undefined)", "category": "inactive"}
{"compound": "CCOc1ccc(NC(=O)NC(=O)N(C)S(=O)(=O)c2ccc(C)cc2)cc1", "category": "inactive"}
{"compound": "N=C1C(c2nc3ccccc3s2)=C(O)CN1NC(=O)c1c[nH]c2ccccc12", "category": "active"}
{"compound": "CS(=O)(=O)NCCSCc1c(Cl)cccc1Cl", "category": "inactive"}
{"compound": "CNC(=S)NNC(=O)c1c(C)nc2cc(C)ccn12", "category": "inactive"}
{"compound": "Oc1c(Br)cc(/C=N/n2c(-c3ccccc3)n[nH]c2=S)c(O)c1Br", "category": "inactive"}
{"compound": "O=[N+]([O-])c1ccc(O)c(C=Nc2cccc3ccccc23)c1", "category": "inactive"}
{"compound": "COC(=O)c1c(C)oc(C)c1S(=O)(=O)N(Cc1ccccc1)C(C)C", "category": "inactive"}
{"compound": "COc1ccc(N2C(=O)C(Cl)=C(N3CCCC3)C2=O)cc1", "category": "inactive"}
